Record form. Attribute: pIC50. Fill in for each entry.
- tgt: KRAS G13D (Homo sapiens (Human), UniProt P01116+P62937, G13D)
- Sequence (P01116-2 other isoform, or with tags, fused parts or gaps G13D): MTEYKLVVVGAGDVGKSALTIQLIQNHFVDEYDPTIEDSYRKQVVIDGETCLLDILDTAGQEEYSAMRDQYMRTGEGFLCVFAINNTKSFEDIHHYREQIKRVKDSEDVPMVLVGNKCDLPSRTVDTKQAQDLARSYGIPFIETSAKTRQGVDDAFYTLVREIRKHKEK
- Sequence (P62937 whole entry): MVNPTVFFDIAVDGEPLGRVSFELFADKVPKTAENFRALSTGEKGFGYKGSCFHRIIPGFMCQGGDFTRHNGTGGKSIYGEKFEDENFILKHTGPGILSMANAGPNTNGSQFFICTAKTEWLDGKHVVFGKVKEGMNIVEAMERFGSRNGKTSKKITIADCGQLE
- assayDetails: Ras-Raf (BRAF RBD) disruption / FRET / MOA assay, KRAS G13D
- Format: biochemical
- measurementParameters: read-out: IC50* KRAS G13D FRET data
pIC50: −log10 of the molar value.

compound="CO[C@@H](C)c1ncccc1-c1c2c3cc(ccc3n1CC(F)(F)F)-c1csc(n1)C[C@H](NC(=O)[C@H](C(C)C)N(C)C(=O)N1C[C@@H]3OCCN(C(=O)/C=C/CF)[C@@H]3C1)C(=O)N1CCC[C@H](N1)C(=O)OCC(C)(C)C2 (atropisomer, axis not shown)" measurementname=pIC50 datavalue="5.00 to 6.00"
compound="CO[C@@H](C)c1ncccc1-c1c2c3cc(ccc3n1CC(F)(F)F)-c1cccc(c1)C[C@H](NC(=O)[C@@H](COC1CN(C(=O)C#CC(C)(C)N(C)C)C1)C(C)C)C(=O)N1CCC[C@H](N1)C(=O)OCC(C)(C)C2 (atropisomer, axis not shown)" measurementname=pIC50 datavalue="< 5.00"
compound=CCn1c(-c2cccnc2COC)c2c3cc(ccc31)-c1cc(O)cc(c1)C[C@H](NC(=O)[C@H](C(C)C)N(C)C(=O)[C@H]1CCN(C(=O)C#CCN3CCOCC3)C1)C(=O)N1CCC[C@H](N1)C(=O)OCC(C)(C)C2 measurementname=pIC50 datavalue="5.00 to 6.00"

Moving on to another compound below.
Name the recorded pIC50 of the item CCn1c(-c2cccnc2[C@H](C)OC)c2c3cc(ccc31)-c1cccc(c1)C[C@H](NC(=O)[C@H](C(C)C)N1CC[C@]3(CCN(C(=O)C#C[C@@H]4COCCN4C)C3)C1=O)C(=O)N1CCC[C@H](N1)C(=O)OCC(C)(C)C2 (atropisomer, axis not shown) in your answer.
< 5.00
